Data provenance: a melting point compilation (Tetko et al.; mined from patent text by program, amines drawn as free bases though some values may be those of a salt)

This listing pairs compounds with measured melting point.
MEASUREMENT_TYPE: melting point

> print(dat)
                                    compound  measurement.type  measured.value
 1  N#Cc1ccc(C(=O)N2C[C@H](OCc3ccccc3)C[C@H]2C(=O)O)cc1     melting point     58 to 60 °C
 2              COc1ccc2c3c(ccc2c1)OC(=O)CC3     melting point   122 to 123 °C
 3  CCOC(=O)C1=C(N)N=C(OCC)C(C(=O)OCC)C1c1ccccc1 (stereo unspecified)     melting point          119 °C
 4  CN1CCN(c2nc(-c3ccccc3)c(-c3ccnc(S(C)=O)n3)s2)CC1 (stereo unspecified)     melting point   166 to 169 °C
 5      Cc1cccc(-c2nc3ccccc3n2Cc2ccccc2Cl)c1     melting point          117 °C
 6  O=C(O)C(O)=CC(=O)c1cc(Cc2ccc(F)cc2F)cn(Cc2ccccc2F)c1=O     melting point   187 to 189 °C
 7   CCCCOc1ccc(C(=O)c2cccc(C(=O)O)c2)c(O)c1     melting point          175 °C
 8           Cc1ccc(SCc2noc(-c3ccccc3)n2)cc1     melting point           71 °C
 9  CNc1nc(-c2cccc(-c3cccc(SC)c3)c2)c2cc(OC)c(OC)cc2n1     melting point   195 to 197 °C
10            CC(=O)Nc1ccc([N+](=O)[O-])cc1O     melting point        > 250 °C
11            COc1cccc(C(N)=O)c1[N+](=O)[O-]     melting point   212 to 214 °C
12            Oc1cccc(-c2ncc3ncc(Cl)cc3n2)c1     melting point   252 to 253 °C
13  CC1(C)CCC(C)(C)c2cc3cc(-c4ccc(C(=O)O)s4)ccc3cc21     melting point   254 to 255 °C
14               Cn1c2ccccc2c2cc(C(=O)O)sc21     melting point   179 to 180 °C
15  CS(=O)(=O)c1ccc(-c2cnn(CC(F)(F)F)c(=O)c2-c2ccc(Cl)c(F)c2)cc1     melting point   174 to 175 °C
16  CC(=O)N1c2ccc(Cl)cc2CC1C#N (stereo unspecified)     melting point   140 to 142 °C

###

This listing pairs compounds with measured melting point.
MEASUREMENT_TYPE: melting point

> print(dat)
                                    compound   measured.value
 1  COCOc1cc(COc2nn(Cc3ccccc3)cc2CO)ccc1OCc1nc(-c2ccco2)oc1C      98 to 99 °C
 2  COc1ccc(N2CCN(c3c(C)c(C)c4c(c3C)C(O)(CCc3ccccc3)C(C)(C)O4)CC2)cc1 (stereo not drawn)    124 to 126 °C
 3                CN1C(=C(C#N)C#N)Oc2ccccc21    198 to 200 °C
 4  Cn1ncc2c1-c1c(Oc3ccc4c(c3)OCO4)sc(C#N)c1CC2    132 to 134 °C
 5  O=C(Nc1cccc(S(=O)(=O)NCC2CC2)c1)c1cnn2c(C(F)F)cc(-c3ccc(C(F)(F)F)cc3)nc12           238 °C
 6  CC(C)(C)C(=O)Nc1ccc(-c2nc3n(c2-c2ccc(NC(=O)C(C)(C)C)cc2)CCS3)cc1    210 to 215 °C
 7  CCOC(=O)COc1cc(OC)c2c(c1S(N)(=O)=O)OC1(CCCCC1)CC2=O    188 to 190 °C
 8  Cn1c2c(c3ccccc31)C(=O)C(=Cc1c[nH]cn1)CC2    225 to 232 °C
 9    CN1CCc2cc(Cl)c(N)cc2[C@@H](c2ccccc2)C1      68 to 70 °C
10  COc1ccc(-c2noc3c2C(c2cc(OC)c(OC)c(OC)c2)C2=C(COC2=O)N3)cc1 (stereo not drawn)    218 to 219 °C
11             CCOC(=O)c1cc(N=C=S)c(Cl)cc1Cl      45 to 46 °C
12  Cc1cc(SCc2cnc(-c3ccc(C(F)(F)F)cc3)nc2C2CC2)ccc1OC(C)(C)C(=O)O    129 to 131 °C
13        CCCc1nc2cc(C(=O)c3ccccc3)ccc2[nH]1    131 to 132 °C
14  Cc1nc(NC(=O)c2cccc(Cl)c2)sc1C(=O)NCc1ccccc1    178 to 179 °C
15    CC(=O)c1sc(N2CCN(CCCC(F)(F)F)C2=O)nc1C    108 to 110 °C
16  O=C(NCc1ccc(Cl)cc1)c1cnc2c(I)cc(CC3CCOCC3)cc2c1O    257 to 259 °C
17              CCCCCCCCCCCCCCCCOc1ccc(O)cc1      87 to 88 °C
18  CCOC(=O)C1=C[C@@H](OC(CC)CC)[C@H](NC(C)=O)[C@H](O)C1    129 to 131 °C
19  Cc1nn2ccccc2c1C(=O)C1=CN(C(=O)Nc2ccc(Cl)cc2)CCC1    198 to 200 °C
20            COc1cc2cc(OCc3ccccc3)cnc2cc1OC    146 to 148 °C
21  CC(C)(C)c1ccc(C=NOCc2ccc(CC(=O)O)cc2)cc1  93.3 to 96.2 °C
22  CCOC(=O)c1nc(-c2cccc(F)c2)c(-c2ccc(=O)n(C(C)C)n2)s1    154 to 155 °C
23  Cc1cc(C)n(C(=O)CNS(=O)(=O)c2ccc(CC(C)C)cc2)n1           124 °C
24  CCOCc1nc2c(N)nc3cc(-c4cccnc4)ccc3c2n1CC1CCCCN1S(C)(=O)=O (stereo not drawn)    152 to 154 °C
25              CCCCNC(=O)CSc1nc(Cl)cc(Cl)n1    109 to 111 °C
26        CCCc1nc2cc3c(cc2[nH]1)NC(=O)C3(C)C    284 to 285 °C
27  Cc1cc(C)cc(NC(=O)Cc2ccc(OC3(C(=O)O)CCCC(C)C3)cc2)c1 (stereo not drawn)    175 to 177 °C
28  Cc1ccccc1Cn1cc(-c2cn(C3CC(O)C(CO)O3)c(=O)[nH]c2=O)nn1 (stereo not drawn)    168 to 170 °C

###

MEASUREMENT_TYPE: melting point

COMPOUND	MEASURED_VALUE
CCCCn1ccc(-c2ccc3c(ccn3[C@H]3CC[C@H](O)CC3)c2)c(Cl)c1=O	191 °C
O=C(NCc1ccc(Cl)cc1)c1cnc2sccc2c1O	238 to 240 °C
CCC(=C(c1ccccc1)c1ccc(C=CC(N)=NO)cc1)c1ccccc1	182 to 185 °C
CC(=O)N1CCCCc2ccc(C(=O)CCC3CCN(Cc4ccccc4)CC3)cc21	115 to 116 °C
CCOC(=O)c1ccc2c(c1)C(=O)C(=O)N2	205 to 206 °C
Cc1ccc([N+](=O)[O-])c(C(O)=S)c1	165 to 169 °C
Cc1noc(C2CCCCC2=O)n1 (centres undefined)	74 to 76 °C
CCCCN(CCCC)C(=O)On1c(-c2ccccc2)nc2c3ccc4ccccc4c3ccc21	120 °C
Cc1[nH]c2ccccc2c1CCCN1CCC(c2noc3ccc(F)cc23)CC1	144 to 146 °C
OC(Cc1cnc(-c2c(F)cccc2F)nn1)c1ccc(Cl)cc1 (centres undefined)	98 to 102 °C
CC(C)Cn1nc(-c2ccc(C(F)(F)F)cc2)cc(COS(C)(=O)=O)c1=O	123 to 124 °C
OCCC1(c2ccc(Cl)c(Cl)c2)CCCNC1 (centres undefined)	122 °C
N#Cc1ccc(C2C(=O)N(Cc3ccccc3)Cc3cncn32)cc1 (centres undefined)	163 to 165 °C
CS(=O)(=O)c1c(N2CCN(C(=O)c3cccs3)CC2)c2cccnc2n(Cc2ccccc2)c1=O	223 °C
CC[C@H](C)C(OCc1ccccc1)[C@@H]1[C@H]([N+](=O)[O-])[C@H](c2ccccc2)N(C(=O)CN)[C@]1(C)C(=O)NCCC(=O)O (some centres undefined)	116 °C
COc1cccc(-c2n[nH]c(-c3ccccc3CO)n2)c1	155 to 156 °C
CCCc1c(S)ccc2c(=O)cc(C(=O)O)oc12	206 to 208 °C
COc1nc(NNc2nc(OC)nc(OC)n2)nc(OC)n1	222 to 224 °C
O=c1c2c(Br)cc(Br)cc2n(Cc2ccccc2)c(=O)n1Cc1ccccc1Cl	202 to 205 °C

###

This listing pairs compounds with measured melting point.
MEASUREMENT_TYPE: melting point (°C)

> print(dat)
                            smiles.repr  comparison.sign  measured.value
1  C[Si](C)(C)COc1cc([N+](=O)[O-])ccc1N                =              87
2            CCCC(=O)c1cc(-c2ccccc2)ns1                =              70
3               COc1cccc2c(O)c(CO)cnc12                >             350
